# pIC50 listing for each entry below
# Test system: Trypanosoma cruzi
# experiment: Antiparasitic activity against Trypanosoma cruzi T2 epimastigotes assessed as growth inhibition
# Assay type: functional
# measurement_parameters: read-out: ID50 (the source's name)
pIC50: −log10 of the molar value.

compound: [O-][n+]1onc(-c2ccccc2)c1CNc1cccc2ccccc12
target_entity: Trypanosoma cruzi
prefix_operator: <
pIC50: 4.60

compound: C/C(=C\c1cccs1)[N+](=O)[O-]
target_entity: Trypanosoma cruzi
prefix_operator: <
pIC50: 4.60

compound: Cc1ccc(-c2nsc(=O)[nH]2)cc1
target_entity: Trypanosoma cruzi
prefix_operator: <
pIC50: 4.60

compound: CCOC(=O)c1nc(-c2ccccc2)ns1
target_entity: Trypanosoma cruzi
prefix_operator: <
pIC50: 4.60

compound: O=C(Cn1ccnc1[N+](=O)[O-])NCc1ccccc1
target_entity: Trypanosoma cruzi
prefix_operator: =
pIC50: 5.13

compound: NC1=NS(=O)(=O)N=C(N)C1=Cc1ccc([N+](=O)[O-])o1
target_entity: Trypanosoma cruzi
prefix_operator: =
pIC50: 4.30

compound: c1ccc(-c2nsc(-c3ccccc3)n2)cc1
target_entity: Trypanosoma cruzi
prefix_operator: =
pIC50: 4.60

compound: O=C1C(=Cc2ccc([N+](=O)[O-])o2)C(=O)N(Cc2ccccc2)S(=O)(=O)N1Cc1ccccc1
target_entity: Trypanosoma cruzi
prefix_operator: =
pIC50: 4.30

compound: C/C(=C\c1ccc2c(c1)OCO2)[N+](=O)[O-]
target_entity: Trypanosoma cruzi
prefix_operator: =
pIC50: 5.29

compound: Cc1ccc(-c2nsc(S(=O)(=O)c3ccc(C)cc3)n2)cc1
target_entity: Trypanosoma cruzi
prefix_operator: =
pIC50: 5.30

compound: [O-][n+]1c2ccc(O)cc2[n+]([O-])c2cc(Cl)c(Cl)cc21
target_entity: Trypanosoma cruzi
prefix_operator: =
pIC50: 5.54
